# credit: paper PMC10600881

- System: C. albicans (ATCC 10231)
- assay_comment: Broth microdilution assay, antifungal MIC/MFC
- Type: cell-based, Candida albicans
- measurement_setup: C. albicans; MFC/MIC > 4 = fungistatic
assay_metric: fungicidal or fungistatic behavior

Use the examples below as a reference point.
COc1ccc(OC)c(C2CC(c3cccs3)=NN2C2=NC(=O)C(=C3C(=O)Nc4ccccc43)S2)c1 (stereo not drawn)	fungistatic
COc1ccc(OC)c(C2CC(c3cccs3)=NN2C2=NC(=O)C(C)S2)c1 (stereo not drawn)	fungistatic
Cc1csc(N2N=C(c3cccs3)CC2c2cccs2)n1 (stereo not drawn)	fungistatic
COc1ccc(OC)c(C2CC(c3cccs3)=NN2c2nc(-c3ccccc3)cs2)c1 (stereo not drawn)	fungistatic
Brc1ccc(-c2csc(N3N=C(c4cccs4)CC3c3cccs3)n2)cc1 (stereo not drawn)	fungistatic

IN: Name the reported fungicidal or fungistatic behavior value associated with the molecule COc1ccc(OC)c(C2CC(c3cccs3)=NN2c2nc(C)cs2)c1 (stereo not drawn)
OUT: fungistatic

* * *

- Tested on: P. aeruginosa (ATCC 29853)
- assay_comment: Broth microdilution assay, MIC/MBC
- Assay type: cell-based
- measurement_setup: Pseudomonas aeruginosa, ATCC29853
Property: MBC; scope: individual compounds
Quick note: give the figure in µg/mL, leave out the unit.

COc1ccc(OC)c(C2CC(c3cccs3)=NN2c2nc(-c3ccccc3)cs2)c1 (centres unmarked)	250
O=C1CCSC(N2N=C(c3cccs3)CC2c2cccs2)=N1 (centres unmarked) [10a]	125
COc1ccc(OC)c(C2CC(c3cccs3)=NN2c2nc(C)cs2)c1 (centres unmarked)	125

With those in mind, consider the next compound.
IN: Lab note: need MBC for COc1ccc(OC)c(C=C2SC(N3N=C(c4cccs4)CC3c3cccs3)=NC2=O)c1 (centres unmarked) on P. aeruginosa (ATCC 29853), anyone have it?
OUT: 250

* * *

Property: ratio (MFC/MIC); scope: individual molecules
- System: C. albicans (ATCC 10231)
- assay_comment: Broth microdilution assay, antifungal MIC/MFC
- Format: cell-based, Candida albicans
- measurement_setup: C. albicans (ATCC 10231)
Just the number, please, no unit after it.

COc1ccc(OC)c(C=C2SC(N3N=C(c4cccs4)CC3c3cc(OC)ccc3OC)=NC2=O)c1 (centres unmarked)	2

With those in mind, consider the next molecule.
IN: Name the reported ratio (MFC/MIC) value associated with the molecule COc1ccc(OC)c(C2CC(c3cccs3)=NN2C2=NC(=O)CCS2)c1 (centres unmarked) [10b]
OUT: 2

* * *

- Tested on: C. albicans (ATCC 10231)
- assay_comment: Broth microdilution assay, antifungal MIC/MFC
- Format: cell-based, Candida albicans
- measurement_setup: C. albicans (ATCC 10231)
assay_metric: ratio (MFC/MIC)
Just the number, please, no unit after it.

O=C1CCSC(N2N=C(c3cccs3)CC2c2cccs2)=N1 (centres unmarked) [10a]	4
COc1ccc(C=C2SC(N3N=C(c4cccs4)CC3c3cc(OC)ccc3OC)=NC2=O)cc1 (centres unmarked)	4
CCOC(=O)c1sc(N2N=C(c3cccs3)CC2c2cc(OC)ccc2OC)nc1C (centres unmarked)	2

IN: Name the reported ratio (MFC/MIC) value associated with the compound CCOC(=O)c1sc(N2N=C(c3cccs3)CC2c2cccs2)nc1C (centres unmarked)
OUT: 4

IN: Try the compound COc1ccc(OC)c(C2CC(c3cccs3)=NN2C(N)=S)c1 (centres unmarked)
OUT: 4

* * *

Property: MIC; scope: individual compounds
- System: P. aeruginosa (ATCC 29853)
- assay_comment: Broth microdilution assay, MIC/MBC
- Format: cell-based
- measurement_setup: Pseudomonas aeruginosa, ATCC29853

Use the examples below as a reference point.
COc1ccc(OC)c(C2CC(c3cccs3)=NN2C2=NC(=O)CCS2)c1 (stereo not shown) [10b]	62.2 µg/mL
CC1SC(N2N=C(c3cccs3)CC2c2cccs2)=NC1=O (stereo not shown)	> 500 µg/mL
CCOC(=O)c1sc(N2N=C(c3cccs3)CC2c2cccs2)nc1C (stereo not shown)	> 500 µg/mL
COc1ccc(OC)c(C2CC(c3cccs3)=NN2c2nc(-c3ccccc3)cs2)c1 (stereo not shown)	15.6 µg/mL

IN: Name the reported MIC value associated with the compound COc1ccc(OC)c(C=C2SC(N3N=C(c4cccs4)CC3c3cccs3)=NC2=O)c1 (stereo not shown)
OUT: 31.2 µg/mL

IN: Try the compound CCOC(=O)c1sc(N2N=C(c3cccs3)CC2c2cc(OC)ccc2OC)nc1C (stereo not shown)
OUT: 31.2 µg/mL

IN: Try the compound Cc1csc(N2N=C(c3cccs3)CC2c2cccs2)n1 (stereo not shown)
OUT: > 500 µg/mL

* * *

pIC50, M. tuberculosis DHFR enzyme (Mycobacterium tuberculosis): measured values
The read-out pIC50 is expressed as -log10 of concentration in moles per litre.

COc1ccc(C=C2SC(N3N=C(c4cccs4)CC3c3cc(OC)ccc3OC)=NC2=O)cc1 (centres unmarked)	4.73
COc1ccc(OC)c(C2CC(c3cccs3)=NN2C2=NC(=O)C(=C3C(=O)Nc4ccccc43)S2)c1 (centres unmarked)	4.64
COc1ccc(OC)c(C2CC(c3cccs3)=NN2C2=NC(=O)CS2)c1 (centres unmarked)	5.24
Brc1ccc(-c2csc(N3N=C(c4cccs4)CC3c3cccs3)n2)cc1 (centres unmarked)	5.38

With those in mind, consider the next compound.
IN: Name the reported pIC50 value associated with the compound COc1ccc(OC)c(C2CC(c3cccs3)=NN2C2=NC(=O)CCS2)c1 (centres unmarked) [10b]
OUT: 4.98

* * *

Property: MIC; scope: individual compounds
- Tested on: P. aeruginosa (ATCC 29853)
- assay_comment: Broth microdilution assay, MIC/MBC
- Type: cell-based
- measurement_setup: Pseudomonas aeruginosa, ATCC29853
Quick note: give the figure in µg/mL, leave out the unit.

COc1ccc(C=C2SC(N3N=C(c4cccs4)CC3c3cc(OC)ccc3OC)=NC2=O)cc1 (stereo not drawn)	62.2
COc1ccc(OC)c(C2CC(c3cccs3)=NN2C2=NC(=O)C(C)S2)c1 (stereo not drawn)	125

IN: Name the reported MIC value associated with the compound O=C1CCSC(N2N=C(c3cccs3)CC2c2cccs2)=N1 (stereo not drawn) [10a]
OUT: 31.2

IN: Try the compound Brc1ccc(-c2csc(N3N=C(c4cccs4)CC3c3cccs3)n2)cc1 (stereo not drawn)
OUT: 31.2

IN: Try the compound COc1ccc(OC)c(C2CC(c3cccs3)=NN2C2=NC(=O)CS2)c1 (stereo not drawn)
OUT: 3.9

IN: Try the compound COc1ccc(OC)c(C2CC(c3cccs3)=NN2C2=NC(=O)C(=C3C(=O)Nc4ccccc43)S2)c1 (stereo not drawn)
OUT: 62.2

IN: Try the compound COc1ccc(OC)c(C=C2SC(N3N=C(c4cccs4)CC3c3cc(OC)ccc3OC)=NC2=O)c1 (stereo not drawn)
OUT: 62.2

IN: Try the compound COc1ccc(C=C2SC(N3N=C(c4cccs4)CC3c3cccs3)=NC2=O)cc1 (stereo not drawn)
OUT: 31.2

* * *

- System: C. albicans (ATCC 10231)
- assay_comment: Broth microdilution assay, antifungal MIC/MFC
- Type: cell-based, Candida albicans
- measurement_setup: C. albicans (ATCC 10231)
Property: ratio (MFC/MIC); scope: individual compounds

COc1ccc(OC)c(C2CC(c3cccs3)=NN2C2=NC(=O)C(C)S2)c1 (stereo not drawn) [7b]	8
COc1ccc(OC)c(C=C2SC(N3N=C(c4cccs4)CC3c3cccs3)=NC2=O)c1 (stereo not drawn) [8c]	2

With those in mind, consider the next compound.
IN: Name the reported ratio (MFC/MIC) value associated with the compound OC(Cn1cncn1)(Cn1cncn1)c1ccc(F)cc1F [fluconazole, reference compound]
OUT: 1
